molecular target: recombinant integrin α4β1 (Homo sapiens, UniProt P05556+P13612); construct: purchased R&D Systems 5397-A3-050; assay: Integrin α4β1—VCAM-1 competition ELISA; assay type: binding; conditions: read-out: ELISA α4β1 Assay IC50
Sequence (P13612 34-970 limits assumed): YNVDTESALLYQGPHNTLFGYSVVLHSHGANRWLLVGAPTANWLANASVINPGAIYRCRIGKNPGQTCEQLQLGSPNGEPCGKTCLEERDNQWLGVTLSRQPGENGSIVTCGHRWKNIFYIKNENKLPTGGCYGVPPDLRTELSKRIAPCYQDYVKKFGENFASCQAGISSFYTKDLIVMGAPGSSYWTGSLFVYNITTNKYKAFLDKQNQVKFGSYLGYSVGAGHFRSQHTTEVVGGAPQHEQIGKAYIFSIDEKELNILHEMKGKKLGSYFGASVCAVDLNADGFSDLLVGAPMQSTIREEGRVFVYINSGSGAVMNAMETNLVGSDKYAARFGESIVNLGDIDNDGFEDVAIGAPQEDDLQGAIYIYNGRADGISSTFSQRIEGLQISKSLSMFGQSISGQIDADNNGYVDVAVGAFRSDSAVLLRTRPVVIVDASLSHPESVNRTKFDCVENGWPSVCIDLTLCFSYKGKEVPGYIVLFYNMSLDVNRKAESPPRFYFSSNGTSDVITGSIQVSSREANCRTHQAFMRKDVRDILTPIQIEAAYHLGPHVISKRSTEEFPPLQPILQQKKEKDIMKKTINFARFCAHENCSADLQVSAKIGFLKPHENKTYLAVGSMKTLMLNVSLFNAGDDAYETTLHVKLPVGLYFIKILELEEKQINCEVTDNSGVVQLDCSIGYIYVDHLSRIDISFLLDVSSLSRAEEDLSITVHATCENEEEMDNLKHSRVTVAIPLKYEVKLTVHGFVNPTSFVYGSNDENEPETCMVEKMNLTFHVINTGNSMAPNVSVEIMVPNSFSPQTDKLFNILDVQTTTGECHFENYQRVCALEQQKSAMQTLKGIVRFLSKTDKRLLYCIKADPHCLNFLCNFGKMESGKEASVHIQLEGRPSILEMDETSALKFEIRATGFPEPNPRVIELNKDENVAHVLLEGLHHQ
Sequence (P05556 21-728 limits assumed): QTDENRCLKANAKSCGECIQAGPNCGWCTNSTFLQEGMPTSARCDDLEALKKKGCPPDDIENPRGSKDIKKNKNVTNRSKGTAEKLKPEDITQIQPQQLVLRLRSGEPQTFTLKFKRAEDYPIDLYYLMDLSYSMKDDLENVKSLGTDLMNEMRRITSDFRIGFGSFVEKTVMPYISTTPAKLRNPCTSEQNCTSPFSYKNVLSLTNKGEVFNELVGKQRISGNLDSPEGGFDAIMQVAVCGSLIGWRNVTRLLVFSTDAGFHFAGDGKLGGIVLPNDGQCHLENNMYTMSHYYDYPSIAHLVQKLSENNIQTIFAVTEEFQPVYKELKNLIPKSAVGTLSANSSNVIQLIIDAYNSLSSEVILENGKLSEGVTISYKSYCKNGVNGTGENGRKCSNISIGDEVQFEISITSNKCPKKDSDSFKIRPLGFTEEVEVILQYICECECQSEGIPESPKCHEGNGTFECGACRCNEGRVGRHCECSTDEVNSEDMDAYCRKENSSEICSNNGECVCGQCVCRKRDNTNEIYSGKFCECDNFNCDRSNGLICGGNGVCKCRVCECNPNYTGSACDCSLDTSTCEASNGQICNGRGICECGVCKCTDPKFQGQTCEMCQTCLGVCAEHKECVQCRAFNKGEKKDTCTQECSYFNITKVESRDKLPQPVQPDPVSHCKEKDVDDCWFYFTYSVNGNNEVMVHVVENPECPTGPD
Assign IC50 to each entry below.
Numbers only, in nM.

| molecule | tested target | observed measurement |
| --- | --- | --- |
| CC(C)C[C@@H]1NC(=O)c2ccc(-c3ccc(N4CCN(C(=O)c5ccc(C(=O)N6CCN(c7ccc(-c8ccc9cc8CNC(=O)[C@@H]8CCCN8[C@H](C(=O)NC(C)(C)C)[C@H](C)NC(=O)[C@H]([C@@H](C)O)NC(=O)[C@H](CC(=O)O)NC(=O)[C@H](CC(C)C)NC9=O)cc7)CC6)s5)CC4)cc3)c(c2)CNC(=O)[C@@H]2CCCN2[C@H](C(=O)NC(C)(C)C)[C@H](C)NC(=O)[C@H]([C@@H](C)O)NC(=O)[C@H](CC(=O)O)NC1=O [Compound 470] | recombinant integrin α4β1 (Homo sapiens, UniProt P05556+P13612) | 1 |
| CC(C)C[C@@H]1NC(=O)c2ccc(-c3ccc(N4CCN(C(=O)[C@H]5CCC[C@H]5C(=O)N5CCN(c6ccc(-c7ccc8cc7CNC(=O)[C@@H]7CCCN7[C@H](C(=O)NC(C)(C)C)[C@H](C)NC(=O)[C@H]([C@@H](C)O)NC(=O)[C@H](CC(=O)O)NC(=O)[C@H](CC(C)C)NC8=O)cc6)CC5)CC4)cc3)c(c2)CNC(=O)[C@@H]2CCCN2[C@H](C(=O)NC(C)(C)C)[C@H](C)NC(=O)[C@H]([C@@H](C)O)NC(=O)[C@H](CC(=O)O)NC1=O [Compound 458] | recombinant integrin α4β1 (Homo sapiens, UniProt P05556+P13612) | 1.5 |
| CC(C)C[C@@H]1NC(=O)C[C@H](CCCCN)N(C)C(=O)[C@H](CCCCNC(=O)CCCCCCCC(=O)NCCCC[C@@H]2NC(=O)[C@@H]3CCCN3[C@H](C(=O)NC(C)(C)C)[C@H](C)NC(=O)[C@H]([C@@H](C)O)NC(=O)[C@H](CC(=O)O)NC(=O)[C@H](CC(C)C)NC(=O)C[C@H](CCCCN)N(C)C2=O)NC(=O)[C@@H]2CCCN2[C@H](C(=O)NC(C)(C)C)[C@H](C)NC(=O)[C@H]([C@@H](C)O)NC(=O)[C@H](CC(=O)O)NC1=O [Compound 533] | recombinant integrin α4β1 (Homo sapiens, UniProt P05556+P13612) | 6.2 |
| CC(C)C[C@@H]1NC(=O)c2ccc(-c3ccc(N4CCN(CC(=O)N5CCN(c6ccc(-c7ccc8cc7CNC(=O)[C@@H]7CCCN7[C@H](C(=O)NC(C)(C)C)[C@H](C)NC(=O)[C@H]([C@@H](C)O)NC(=O)[C@H](CC(=O)O)NC(=O)[C@H](CC(C)C)NC8=O)cc6)CC5)CC4)cc3)c(c2)CNC(=O)[C@@H]2CCCN2[C@H](C(=O)NC(C)(C)C)[C@H](C)NC(=O)[C@H]([C@@H](C)O)NC(=O)[C@H](CC(=O)O)NC1=O [Compound 481] | recombinant integrin α4β1 (Homo sapiens, UniProt P05556+P13612) | 1.6 |

Now turn to the next molecule.
Record request: IC50 value, item CC(C)C[C@@H]1NC(=O)c2ccc(-c3ccc(N4CCN(C(=O)c5cc(F)ccc5-c5ccc(F)cc5C(=O)N5CCN(c6ccc(-c7ccc8cc7CNC(=O)[C@@H]7CCCN7[C@H](C(=O)NC(C)(C)C)[C@H](C)NC(=O)[C@H]([C@@H](C)O)NC(=O)[C@H](CC(=O)O)NC(=O)[C@H](CC(C)C)NC8=O)cc6)CC5)CC4)cc3)c(c2)CNC(=O)[C@@H]2CCCN2[C@H](C(=O)NC(C)(C)C)[C@H](C)NC(=O)[C@H]([C@@H](C)O)NC(=O)[C@H](CC(=O)O)NC1=O [Compound 475]
1.1
